Tested on: Scedosporium aurantiacum CBS 136046
procedureSummary: growth inhibition relative to DMSO control (OD600); higher = more antifungal activity, active = 80 or more; extreme values may be limits of the assay
conditionsUsed: 5 µM; 72 h; 37 °C
Labels: active, inactive

CC[C@@H](CO)NCCN[C@@H](CC)CO :: inactive
Nc1nc2c(Cc3cccnc3)c[nH]c2c(=O)[nH]1 :: inactive
NC(=O)c1ccc(I)c([N+](=O)[O-])c1 :: inactive
NC(=O)C(c1ccccc1)(c1ccccc1)[C@H]1CCCN(CCc2ccc3c(c2)CCO3)C1 :: inactive
CC1(C)[C@H](C(=O)O)N2C(=O)C[C@H]2S1(=O)=O :: inactive
Clc1cc(Cl)c2c(c1)CCc1ccccc1C2n1ccnc1 (stereo unspecified) :: active
Cc1cc(CCCOc2c(C)cc(-c3noc(C(F)(F)F)n3)cc2C)on1 :: inactive
Cc1nc2ccc(Oc3ccccc3)cc2c2c1CCN2CCc1ccccc1 :: inactive
O=C(O)c1ccc(-n2nc(-c3ccccc3O)nc2-c2ccccc2O)cc1 :: inactive
N[C@@H]1CN(c2c(F)cc3c(=O)c(C(=O)O)cn([C@@H]4C[C@@H]4F)c3c2Cl)CC12CC2 :: inactive
O=c1cc(Nc2ccc3ccccc3c2)[nH]c(=O)[nH]1 :: inactive
O=C(NCc1ccc(F)cc1)c1c(O)c2ncccc2[nH]c1=O :: inactive
NCC(=O)Nc1ccc(-n2nc(C(F)(F)F)cc2-c2ccc3c(ccc4ccccc43)c2)cc1 :: inactive
O=C(CP(=O)(O)O)NCCc1cccc(Oc2ccccc2)c1 :: inactive
COc1ccc2cc3[n+](cc2c1OCCN(CCn1cncn1)Cc1ccc(F)cc1F)CCc1cc2c(cc1-3)OCO2 :: inactive
CCCCSc1nc(N)c2[nH]c(=O)c(=O)n(Cc3ccccc3)c2n1 :: inactive
Cc1c[nH]c(=O)nc1NCc1ccccc1 :: inactive
CCN(CC)S(=O)(=O)c1ccc(Cl)c(C(=O)Nc2sc3c(c2C#N)CCCC3)c1 :: inactive
C[C@@H](NC(=O)c1cccc(-c2cnc(-c3cc4ccccc4cn3)[nH]2)c1)c1ccc(F)cc1 :: inactive
O=C(Nc1ccc(N2CCN(C(=O)c3ccccc3)CC2)cc1)c1ccc2c(c1)OCO2 :: inactive
O=C(O)c1ccc(-c2ccc(O[C@H]3O[C@H](CO)[C@@H](O)[C@H](O)[C@@H]3O)cc2)cc1 :: inactive

###

Test system: Scedosporium aurantiacum CBS 136046
procedureSummary: growth inhibition relative to DMSO control (OD600); higher = more antifungal activity, active = 80 or more; extreme values may be limits of the assay
conditionsUsed: 5 µM; 72 h; 37 °C
Labels: yes (active), no (inactive)

CCOC(=O)Nc1cc(NC(C)CC(C)CN(CC)CC)c2nc(-c3ccccc3)c(-c3ccccc3)nc2n1 (stereo not given) :: no
C(=C\c1nc2ccccc2[nH]1)/c1ccc2c(c1)OCO2 :: no
O=C1NC(=S)N/C1=C\c1cc(Br)cc(Br)c1O :: no
O=C(O)COc1cccc2c1CC[C@](O)(COC(=O)N(c1ccccc1)c1ccccc1)C2 :: no
CCC[C@@H]1C[C@@H](C(=O)N[C@@H]([C@H]2O[C@H](SC)[C@H](O)[C@@H](O)[C@H]2O)[C@H](C)Cl)N(C)C1 :: no
CCCCc1ccc(S(=O)(=O)Nc2cc(C)on2)cc1 :: no
NCCCc1ccccc1C(=O)Nc1ncc([N+](=O)O)s1 :: no
Cc1ccc(NC(=O)c2ccc(CN3CCN(C)CC3)cc2)cc1Nc1nccc(-c2cccnc2)n1 :: no
CC1CCc2c(N3CCC(O)CC3)c(F)cc3c(=O)c(C(=O)O)cn1c23 (stereo not given) :: no
CC(C)(C)OC(=O)NCc1ccc(C(=O)N[C@H]2CCOC2=O)cc1 :: no
C[Si]1(C)CCN(Cc2cc(-c3ccc(Cl)cc3)n(-c3ccc(Cl)cc3)n2)CC1 :: no
C=C(C)n1c(=O)n(Cc2ccccc2C)c2ccccc21 :: no
Cc1onc(-c2ccccc2)c1-c1ccc(S(N)(=O)=O)cc1 :: no
CC(=O)N[C@H](C)C(=O)N[C@H](Cc1ccccc1)C(=O)O :: no
C=C[C@]1(C)C[C@@H](OC(=O)CS[C@@H]2C[C@H]3CC[C@@H](C2)N3C)[C@]2(C)[C@H](C)CC[C@]3(CCC(=O)[C@H]32)[C@@H](C)[C@@H]1O :: no
Clc1ccc(COC(Cn2ccnc2)c2ccc(Cl)cc2Cl)c(Cl)c1 (stereo not given) :: yes
CCc1cc(Cc2cnc(N)nc2N)cc2c1N(C)CCC2C (stereo not given) :: no
O=C(CCc1ccc2c(c1)OCO2)NCc1ccc(-c2ccccc2F)cc1 :: no
CO/N=C(\C(=O)N[C@@H]1C(=O)N2C(C(=O)OCOC(=O)C(C)(C)C)=C(/C=C\c3scnc3C)CS[C@H]12)c1csc(N)n1 :: no
Cc1ccc(C)c(OCCCCCCN2C[C@H](O)[C@@H](O)[C@H](O)[C@H]2CO)c1 :: no

###

Tested on: Scedosporium aurantiacum CBS 136046
procedureSummary: growth inhibition relative to DMSO control (OD600); higher = more antifungal activity, active = 80 or more; extreme values may be limits of the assay
conditionsUsed: 5 µM; 72 h; 37 °C
The following compounds are shown together with reported growth inhibition values.
measureName: growth inhibition

O=C1C=C(c2ccccc2)S(=O)(=O)c2ccccc21 :: 12.3% (inactive)
Cc1cccc(C)c1C(=O)Nc1nc(-c2ccccn2)cc2ccccc12 :: 26.2% (inactive)
CCCC(=O)OCCc1ccccc1 :: 0% (inactive)
O=C(Nc1cccc(C2=NCCN2)c1)c1ccc(-c2ccc(C(=O)Nc3cccc(C4=NCCN4)c3)cc2)cc1 :: 1.73% (inactive)
Nc1nc(NC2Cc3ccc(F)cc3C2)nc(N2CCCCC2)n1 (stereo unspecified) :: 45.3% (inactive)
Cc1ccc(N2CCC(CCOc3ccc(S(C)(=O)=O)cc3)CC2)nn1 :: 24.5% (inactive)
COc1ccc(C2CNC(=O)C2)cc1OC1CCCC1 (stereo unspecified) :: 16.6% (inactive)
O=C(NCc1ncc(C(F)(F)F)cc1Cl)c1c(Cl)cccc1Cl :: 0% (inactive)
CCCCCCCCC(CP(=O)(O)C(C)N)C(=O)O (stereo unspecified) :: 6.14% (inactive)
N[C@H](CCC(=O)N[C@@H](Cc1c[nH]c2ccccc12)C(=O)O)C(=O)O :: 1.28% (inactive)
Nc1nc(O)c2ncn([C@@H]3O[C@H](CO)[C@@H](O)[C@H]3F)c2n1 :: 17.4% (inactive)
CC[C@H]1OC(=O)[C@H](C)[C@@H](O[C@H]2C[C@@](C)(OC)[C@@H](O)[C@H](C)O2)[C@H](C)[C@@H](O[C@@H]2O[C@H](C)C[C@H](N(C)C)[C@H]2O)[C@](C)(O)C[C@@H](C)C(=O)[C@H](C)[C@@H](O)[C@]1(C)O :: 0.273% (inactive)
O=C(O)C[C@H]1CC[C@H](c2ccc(-c3ccc(Nc4ccc(C(F)(F)F)nc4)cn3)cc2)CC1 :: 12.5% (inactive)
O=C(O)c1cc(-c2ccccc2)nc2ccccc12 :: 12.6% (inactive)
Cn1c2ccccc2c(=O)c2c(O)cccc21 :: 6.84% (inactive)
CCC(C)(C)c1ccc(CC(C)CN2C[C@@H](C)O[C@@H](C)C2)cc1 (stereo partly specified) :: 84.7% (active)
O=S(=O)(Nc1ccc(O)cc1)c1cccc2cccnc12 :: 13.2% (inactive)
Nc1cc(-c2nc3ccccc3[nH]2)n[nH]c1=O :: 1.56% (inactive)
O=S(=O)(Nc1ccccc1)c1ccc(NC(=S)Nc2ccccc2)cc1 :: 24.2% (inactive)
Nc1cc(N)c2nc(-c3ccccc3)c(Nc3ccc(F)cc3)nc2c1 :: 0.18% (inactive)
Nc1nc2c(ncn2/C=C2/CC2(CO)CO)c(=O)[nH]1 :: 1.28% (inactive)

###

Test system: Scedosporium aurantiacum CBS 136046;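 note: conidia screened in RPMI 1640 medium under 5% CO2, growth read by spectrophotometer, medium with 0.5% DMSO serving as the untreated reference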
procedureSummary: growth inhibition relative to DMSO control (OD600); higher = more antifungal activity, active = 80 or more; extreme values may be limits of the assay
conditionsUsed: 5 µM; 72 h; 37 °C
measureName: growth inhibition (%)

Oc1c(C(Nc2nc3ccccc3s2)c2ccc(OC(F)F)cc2)ccc2cccnc12 (stereo not given) :: 12
O=C(N[C@H](Cc1cccc2ccccc12)C(=O)NCCc1c[nH]cn1)C1Cc2ccccc2C1 :: 2.31
O=C(NO)C1(CS(=O)(=O)c2ccc(Oc3ccc(Cl)cc3)cc2)CCOCC1 :: 7.63
COc1cc(C)c2c(Oc3cccc(C(F)(F)F)c3)c(OC)cc(NC(C)CCCN)c2n1 (stereo not given) :: 33.4
COc1ccc(C[C@@H](C)[C@@H](C)Cc2ccc(OC)c(OC)c2)cc1OC :: 8.67
COc1cc(NC(=O)CN2C(=O)NC(c3ccccc3)(c3ccccc3)C2=O)cc(OC)c1 :: 0
NC(=O)c1ccccc1NC(=O)c1ccc(C(=O)Nc2ccccc2C(N)=O)cc1 :: 11.5
CC(C)Oc1ccc(-n2cnc3cc(/C=C\c4ccc(C(C)(C)O)cc4)ccc32)cc1 :: 28.5
NC(=S)N/N=C/c1ncccc1N :: 23.2
COc1ccc2c(c1OC)C(=O)OC2C1c2c(cc3c(c2OC)OCO3)CCN1C (stereo not given) :: 14.1

Where do these numbers come from? They come from the supplement of paper PMC9897528.
